# Plasma Leptin, Males listing for each entry below
Tested on: leptin
Procedure Summary: Experiment 2: high-fat diet with first compounds, plasma leptin ELISA
Format: in vivo, mouse
Test Parameters: male mice, high-fat diet 9 weeks, untreated = 100%; lysine 6.45%, OBS 4.3%, SPC 4.3% of food
Measure Name: Plasma Leptin, Males (%)

[
  {
    "Molecule": "N[C@@H](CSc1ccccc1)C(=O)O [S-Phenyl-Cysteine, S-phenyl cysteine]",
    "Measure Name": "Plasma Leptin, Males",
    "Measurement": 11
  },
  {
    "Molecule": "N[C@@H](COCc1ccccc1)C(=O)O [O-Benzyl-Serine, O-benzyl serine]",
    "Measure Name": "Plasma Leptin, Males",
    "Measurement": 12
  },
  {
    "Molecule": "N[C@@H](Cc1c[nH]c2ccccc12)C(=O)O [Tryptophan, tryptophan]",
    "Measure Name": "Plasma Leptin, Males",
    "Measurement": 18
  },
  {
    "Molecule": "NCCCC[C@H](N)C(=O)O [Lysine, lysine]",
    "Measure Name": "Plasma Leptin, Males",
    "Measurement": 13
  }
]

====

Test system: adiponectin
Procedure Summary: Experiment 2: high-fat diet with first compounds, plasma adiponectin ELISA
Format: in vivo, mouse
Test Parameters: male mice, high-fat diet 9 weeks, untreated = 100%; lysine 6.45%, OBS 4.3%, SPC 4.3% of food

[
  {
    "Input Smiles": "N[C@@H](COCc1ccccc1)C(=O)O",
    "Target Desc": "adiponectin",
    "Plasma Adiponectin, Males (%)": 108
  },
  {
    "Input Smiles": "N[C@@H](Cc1c[nH]c2ccccc12)C(=O)O",
    "Target Desc": "adiponectin",
    "Plasma Adiponectin, Males (%)": 118
  },
  {
    "Input Smiles": "NCCCC[C@H](N)C(=O)O",
    "Target Desc": "adiponectin",
    "Plasma Adiponectin, Males (%)": 92
  },
  {
    "Input Smiles": "N[C@@H](CSc1ccccc1)C(=O)O",
    "Target Desc": "adiponectin",
    "Plasma Adiponectin, Males (%)": 213
  }
]
